Data origin, for the record: patent US12673041B2

Biological target: activated KRAS in NCI-H358 (Homo sapiens, UniProt P01116, G12C)
Construct: host or cells: NCI-H358
Sequence (P01116 1-188 isoform P01116-2 G12C): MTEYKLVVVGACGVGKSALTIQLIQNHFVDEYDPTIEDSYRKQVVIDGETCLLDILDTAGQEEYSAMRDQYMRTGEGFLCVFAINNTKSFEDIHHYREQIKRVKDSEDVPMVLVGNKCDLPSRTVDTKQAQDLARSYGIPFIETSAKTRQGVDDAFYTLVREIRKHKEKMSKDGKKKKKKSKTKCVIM
Assay: Amount of activated KRAS on KRAS-G12C mutant cell line NCI-H358 (Ras GTPase Chemi ELISA)
Format: cell-based
Conditions: NCI-H358, without EGF, 1 hour with compound; read-out: IC50 NCI-H358 without EGF
recorded-metric: IC50 (nM)
Please give a number only; it is taken to be in nM.

Example entries and their recorded answers appear below.
compound: C=CC(=O)N1CCN(c2ncnc3c(F)c(-c4c(O)cccc4F)c(Cl)cc23)CC1 [ARS-1620, reference compound]
assayed-target: activated KRAS in NCI-H358 (Homo sapiens, UniProt P01116, G12C)
unit-of-measure: nM
IC50: 1400

compound: CCc1nc2cc(-c3cccc(NC(=O)c4ccc(NC(=O)/C=C/CN[C@H]5CC[C@H](OC)CC5)c(C#N)c4)c3)c(C(F)(F)F)cc2n1C [Example 1]
assayed-target: activated KRAS in NCI-H358 (Homo sapiens, UniProt P01116, G12C)
unit-of-measure: nM
IC50: 750

// below: IC50 requested for another compound
Item: CO[C@H]1CC[C@H](NC/C=C/C(=O)Nc2ccc(C(=O)c3ccc4c(-c5cc6ncn(C)c6cc5C)cccn34)cc2C#N)CC1 [Example 4] | IC50: 390
